# credit: paper PMC8161026

test system: Non-Small Cell Lung Cancer subpanel; assay: cells; conditions: Non-Small Cell Lung Cancer panel mean
hey, just use rule met if measured MG_MID, TGI is less than 40 µM, otherwise rule not met

In the record for O=C1/C(=C/C(Cl)=C/c2ccc([N+](=O)[O-])cc2)SC(=S)N1c1ccc(O)cc1 [Compound 2f] , is MG_MID, TGI less than 40 µM?
rule met

In the record for O=C1NC(=S)S/C1=C\C(Cl)=C\c1ccc([N+](=O)[O-])cc1 [Compound 2b] , is MG_MID, TGI less than 40 µM?
rule met

In the record for O=C1/C(=C/C(Cl)=C/c2ccc([N+](=O)[O-])cc2)SC(=S)N1/N=C\C(Cl)=C\c1ccc([N+](=O)[O-])cc1 [Compound 2c] , is MG_MID, TGI less than 40 µM?
rule not met

In the record for O=C(O)CCN1C(=O)/C(=C/C(Cl)=C/c2ccc([N+](=O)[O-])cc2)SC1=S [Compound 2h] , is MG_MID, TGI less than 40 µM?
rule met

In the record for O=C(O)C(Cc1ccccc1)N1C(=O)/C(=C/C(Cl)=C/c2ccc([N+](=O)[O-])cc2)SC1=S (centres unmarked) [Compound 2j] , is MG_MID, TGI less than 40 µM?
rule met
